- System Under Test: T1, γ-secretase (Notch cleavage activity) (Homo sapiens, UniProt P49768)
- T1 construct: endogenous in cells; host or cells: SUP-T1 cells
- Test Summary: Cleaved Notch1 Sandwich ELISA (SUP-T1 cell line)
- Assay type: cell-based
- Conditions Used: ratio Notch Elisa IC50 to Aβ42 IC50
For each record, write down the corresponding Notch Elisa/Aβ42.

# input Form field: reported Notch Elisa/Aβ42 of C[C@H](CO)NC(=O)c1ccc(CN(C2CCCCC2F)S(=O)(=O)c2ccc(Cl)cc2)cc1 (stereo partly shown)
# output 305

# input Form field: reported Notch Elisa/Aβ42 of CC1CCCCC1N(Cc1ccc(C(=O)NCCO)cc1)S(=O)(=O)c1ccc(Cl)cc1 (stereo not shown)
# output 157

# input Form field: reported Notch Elisa/Aβ42 of O=C(O)c1ccc(CN(C2CCCCC2(F)F)S(=O)(=O)c2ccc(Cl)cc2)cc1 (stereo not shown)
# output 56

# input Form field: reported Notch Elisa/Aβ42 of COC[C@@H](C)NC(=O)c1ccc(CN(C2CCCCC2C)S(=O)(=O)c2ccc(Cl)cc2)cc1 (stereo partly shown)
# output 1014

# input Form field: reported Notch Elisa/Aβ42 of C[C@H](CO)NC(=O)c1ccc(CN(C2CCCCC2F)S(=O)(=O)c2ccc(Cl)nc2)cc1 (stereo partly shown)
# output 84

# input Form field: reported Notch Elisa/Aβ42 of O=C(O)c1ccc(CN(C2CCCCC2C(F)(F)F)S(=O)(=O)c2ccc(Cl)cc2)cc1 (stereo not shown)
# output 33

# input Form field: reported Notch Elisa/Aβ42 of CN(C)CCNC(=O)c1ccc(CN(C2CCCCC2F)S(=O)(=O)c2ccc(Cl)cc2)cc1 (stereo not shown)
# output 78
